Tested on: α-amylase
Experiment: α-Amylase inhibition assay
Format: biochemical
Settings: 1 μM
measurement.type: % age α-amylase inhibition (%)
Number in %, nothing else.

Task: Query % age α-amylase inhibition for Cc1ccc(C=NNc2nc(-c3ccc(F)cc3)cs2)o1
Result: 30.06

Task: Query % age α-amylase inhibition for Fc1ccc(-c2csc(NN=Cc3ccccc3C(F)(F)F)n2)cc1
Result: 47.84

Task: Query % age α-amylase inhibition for Fc1ccc(-c2csc(NN=Cc3ccc[nH]3)n2)cc1
Result: 42.76

Task: Query % age α-amylase inhibition for Fc1ccc(-c2csc(NN=Cc3ccc(C(F)(F)F)cc3)n2)cc1
Result: 36.97

Task: Query % age α-amylase inhibition for Cc1ccc(C=NNc2nc(-c3ccc(F)cc3)cs2)c(Br)c1
Result: 31.95

Task: Query % age α-amylase inhibition for Fc1ccc(-c2csc(NN=Cc3cccc(C(F)(F)F)c3)n2)cc1
Result: 38.90

Task: Query % age α-amylase inhibition for CSc1ccccc1C=NNc1nc(-c2ccc(F)cc2)cs1
Result: 33.07

====

Assay: DPPH radical scavenging assay
Settings: 6 mM
Decide using % age antioxidant potential: a value greater than or equal to 10% is t, a smaller one is f.

Task: % age antioxidant potential >= 10% for Fc1ccc(-c2csc(NN=Cc3cccc(C(F)(F)F)c3)n2)cc1 ?
Result: f

Task: % age antioxidant potential >= 10% for Fc1ccc(-c2csc(NN=Cc3ccc(C(F)(F)F)cc3)n2)cc1 ?
Result: t

Task: % age antioxidant potential >= 10% for CCOc1ccccc1C=NNc1nc(-c2ccc(F)cc2)cs1 ?
Result: t

Task: % age antioxidant potential >= 10% for CC(=NNc1nc(-c2ccc(F)cc2)cs1)c1cccc(Br)c1 ?
Result: f

Task: % age antioxidant potential >= 10% for Cc1ccc(C=NNc2nc(-c3ccc(F)cc3)cs2)c(Br)c1 ?
Result: t

Task: % age antioxidant potential >= 10% for Cc1ccc(C=NNc2nc(-c3ccc(F)cc3)cs2)o1 ?
Result: f

Task: % age antioxidant potential >= 10% for Oc1ccc(Cl)cc1C=NNc1nc(-c2ccc(F)cc2)cs1 ?
Result: f

Task: % age antioxidant potential >= 10% for Fc1ccc(-c2csc(NN=Cc3ccccc3C(F)(F)F)n2)cc1 ?
Result: t

Task: % age antioxidant potential >= 10% for COc1cc(Br)c(C=NNc2nc(-c3ccc(F)cc3)cs2)cc1OC ?
Result: t

Task: % age antioxidant potential >= 10% for O=C1O[C@H]([C@@H](O)CO)C(O)=C1O [ascorbic acid, reference compound] ?
Result: t

Task: % age antioxidant potential >= 10% for CC(CCc1ccccc1)=NNc1nc(-c2ccc(F)cc2)cs1 ?
Result: t

Task: % age antioxidant potential >= 10% for Fc1ccc(-c2csc(NN=Cc3cccs3)n2)cc1 ?
Result: t

====

Target: α-amylase
Assay: α-Amylase inhibition assay
Conditions: read-out: IC50 ± SEM, α-amylase inhibition
Give measured IC50 for each item. Keep answers brief.
Number in µM, nothing else.

Task: Query IC50 for Cc1ccc(C=NNc2nc(-c3ccc(F)cc3)cs2)c(Br)c1
Result: 6.87

Task: Query IC50 for CCOc1ccccc1C=NNc1nc(-c2ccc(F)cc2)cs1
Result: 8.07

Task: Query IC50 for Oc1ccc(Cl)cc1C=NNc1nc(-c2ccc(F)cc2)cs1
Result: 5.14

Task: Query IC50 for COc1c(F)cccc1C=NNc1nc(-c2ccc(F)cc2)cs1
Result: 7

Task: Query IC50 for Fc1ccc(-c2csc(NN=Cc3ccc(C(F)(F)F)cc3)n2)cc1
Result: 6.92

Task: Query IC50 for Fc1ccc(-c2csc(NN=Cc3ccccc3C(F)(F)F)n2)cc1
Result: 6.03

====

Test: DPPH radical scavenging assay
Conditions: 12 mM
measurement.type: % age antioxidant potential (%)
Number in %, nothing else.

Task: Query % age antioxidant potential for Cc1ccc(C=NNc2nc(-c3ccc(F)cc3)cs2)o1 [3e]
Result: 44.74

Task: Query % age antioxidant potential for CC(=NNc1nc(-c2ccc(F)cc2)cs1)c1ccc(F)cc1 [3g]
Result: 0.00

Task: Query % age antioxidant potential for Fc1ccc(-c2csc(NN=Cc3ccccc3C(F)(F)F)n2)cc1 [3k]
Result: 30.92

Task: Query % age antioxidant potential for CC(CCc1ccccc1)=NNc1nc(-c2ccc(F)cc2)cs1 [3c]
Result: 57.51

Task: Query % age antioxidant potential for Cc1ccc(C=NNc2nc(-c3ccc(F)cc3)cs2)c(Br)c1 [3b]
Result: 53.65

Task: Query % age antioxidant potential for O=C1O[C@H]([C@@H](O)CO)C(O)=C1O [ascorbic acid, reference compound]
Result: 81.85

Task: Query % age antioxidant potential for Fc1ccc(-c2csc(NN=Cc3ccc[nH]3)n2)cc1 [3m]
Result: 15.13

Task: Query % age antioxidant potential for COc1cc(Br)c(C=NNc2nc(-c3ccc(F)cc3)cs2)cc1OC [3a]
Result: 47.58

Task: Query % age antioxidant potential for Fc1ccc(-c2csc(NN=Cc3ccc(C(F)(F)F)cc3)n2)cc1 [3d]
Result: 56.39

Task: Query % age antioxidant potential for CSc1ccccc1C=NNc1nc(-c2ccc(F)cc2)cs1 [3o]
Result: 30.15

Task: Query % age antioxidant potential for Fc1ccc(-c2csc(NN=Cc3cccc(C(F)(F)F)c3)n2)cc1 [3i]
Result: 32.26

Task: Query % age antioxidant potential for Oc1ccc(Cl)cc1C=NNc1nc(-c2ccc(F)cc2)cs1 [3h]
Result: 8.78

Task: Query % age antioxidant potential for Fc1ccc(-c2csc(NN=Cc3cccs3)n2)cc1 [3n]
Result: 45.47

Task: Query % age antioxidant potential for CCOc1ccccc1C=NNc1nc(-c2ccc(F)cc2)cs1 [3j]
Result: 75.45

====

Give measured inhibition at 800 ppm for each item. Keep answers brief.
Molecular target: Bovine serum albumin (BSA)-glucose model (Bos taurus)
Sequence (P02769 25-607): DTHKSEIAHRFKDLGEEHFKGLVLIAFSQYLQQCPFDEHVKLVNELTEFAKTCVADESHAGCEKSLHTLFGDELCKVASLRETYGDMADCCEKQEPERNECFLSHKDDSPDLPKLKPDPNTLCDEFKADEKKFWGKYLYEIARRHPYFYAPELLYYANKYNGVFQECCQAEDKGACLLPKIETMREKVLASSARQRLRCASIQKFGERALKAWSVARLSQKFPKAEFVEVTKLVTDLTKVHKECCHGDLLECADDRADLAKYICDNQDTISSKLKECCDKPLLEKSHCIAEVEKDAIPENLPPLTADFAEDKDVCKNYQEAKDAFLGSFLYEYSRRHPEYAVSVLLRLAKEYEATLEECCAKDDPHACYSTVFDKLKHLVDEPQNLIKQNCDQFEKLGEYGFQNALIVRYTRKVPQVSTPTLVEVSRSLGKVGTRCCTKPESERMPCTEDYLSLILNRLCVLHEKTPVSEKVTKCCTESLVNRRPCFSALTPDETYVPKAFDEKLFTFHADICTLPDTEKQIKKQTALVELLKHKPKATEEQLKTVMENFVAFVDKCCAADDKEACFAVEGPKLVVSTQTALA
Test: In vitro anti-glycation assay, BSA-glucose model
Assay type: biochemical
Conditions: read-out: % age antiglycation inhibition

Task: Query inhibition at 800 ppm for Cc1ccc(C=NNc2nc(-c3ccc(F)cc3)cs2)o1
Result: 72.8%

Task: Query inhibition at 800 ppm for Fc1ccc(-c2csc(NN=Cc3cccc(C(F)(F)F)c3)n2)cc1
Result: 91.2%

Task: Query inhibition at 800 ppm for Oc1ccc(Cl)cc1C=NNc1nc(-c2ccc(F)cc2)cs1
Result: 69%

Task: Query inhibition at 800 ppm for CSc1ccccc1C=NNc1nc(-c2ccc(F)cc2)cs1
Result: 88.2%

Task: Query inhibition at 800 ppm for CC(=NNc1nc(-c2ccc(F)cc2)cs1)c1ccc(F)cc1
Result: 66.6%

====

Molecular target: Bovine serum albumin (BSA)-glucose model (Bos taurus)
Assay: In vitro anti-glycation assay, BSA-glucose model
Assay type: biochemical
Conditions: read-out: % age antiglycation inhibition
Give measured inhibition at 400 ppm for each item. Keep answers brief.
Number in %, nothing else.

Task: Query inhibition at 400 ppm for COc1cc(Br)c(C=NNc2nc(-c3ccc(F)cc3)cs2)cc1OC
Result: 84.8

Task: Query inhibition at 400 ppm for CCOc1ccccc1C=NNc1nc(-c2ccc(F)cc2)cs1
Result: 66.5

Task: Query inhibition at 400 ppm for CC(=NNc1nc(-c2ccc(F)cc2)cs1)c1ccc(F)cc1
Result: 48.8

Task: Query inhibition at 400 ppm for Fc1ccc(-c2csc(NN=Cc3ccc[nH]3)n2)cc1
Result: 82.5

Task: Query inhibition at 400 ppm for Fc1ccc(-c2csc(NN=Cc3cccc(C(F)(F)F)c3)n2)cc1
Result: 89.1

====

Molecular target: Bovine serum albumin (BSA)-glucose model (Bos taurus)
Experiment: In vitro anti-glycation assay, BSA-glucose model
Type: biochemical
Conditions: read-out: % age antiglycation inhibition
Give measured inhibition at 600 ppm for each item. Keep answers brief.
Give the value; after it, write the unit.

Task: Query inhibition at 600 ppm for Cc1ccc(C=NNc2nc(-c3ccc(F)cc3)cs2)c(Br)c1
Result: 86.2%

Task: Query inhibition at 600 ppm for Fc1ccc(-c2csc(NN=Cc3ccccc3C(F)(F)F)n2)cc1
Result: 89.2%

Task: Query inhibition at 600 ppm for Fc1ccc(-c2csc(NN=Cc3ccc[nH]3)n2)cc1
Result: 84%

Task: Query inhibition at 600 ppm for COc1cc(Br)c(C=NNc2nc(-c3ccc(F)cc3)cs2)cc1OC
Result: 85.9%

Task: Query inhibition at 600 ppm for CCOc1ccccc1C=NNc1nc(-c2ccc(F)cc2)cs1
Result: 70.3%

Task: Query inhibition at 600 ppm for CC(=NNc1nc(-c2ccc(F)cc2)cs1)c1cccc(Br)c1
Result: 88%

Task: Query inhibition at 600 ppm for Fc1ccc(-c2csc(NN=Cc3ccc(C(F)(F)F)cc3)n2)cc1
Result: 89.5%

Task: Query inhibition at 600 ppm for Fc1ccc(-c2csc(NN=Cc3cccc(C(F)(F)F)c3)n2)cc1
Result: 90%

Task: Query inhibition at 600 ppm for Fc1ccc(-c2csc(NN=Cc3cccs3)n2)cc1
Result: 83%

Task: Query inhibition at 600 ppm for CSc1ccccc1C=NNc1nc(-c2ccc(F)cc2)cs1
Result: 86.4%
